- Test system: COLO 205 colon
- assay_name: NCI-60 one-dose screen, 48 h
- details: 10 µM unless noted
The panel holds about 83,000 compounds, 20% with a hit somewhere; the sample as a whole holds those more often. The source made the active and inactive calls. Rule for the calls: active = growth percent below 10; inactive = the rest.
Output constraint: value belongs to active, inactive

COc1cc(-c2nc3ccccc3[nH]2)ccc1OCC(=O)N=Nc1c(O)[nH]c2ccc(Cl)cc12	active

Input: Lab log entry: `COc1cccc(-c2nc3sccn3c2-c2ccnc(NCCNS(=O)(=O)c3ccccc3)c2)c1` — outcome as called in the assay?
Output: inactive

----------
- Tested on: SK-MEL-2 melanoma
- assay_name: NCI-60 one-dose screen, 48 h (100 = growth as untreated, 0 = no growth, -100 = all killed)
- details: 10 µM unless noted
This is part of a sample that, as a whole, favours compounds with a hit. Of some 83,000 tested, about 20% had one in any assay. Active and inactive are the calls of the source. The calls were made as follows: active = growth percent below 10; inactive = the rest.
Here the recorded growth is given for each entry.

Here is how some compounds turned out for growth.
COc1cc2c(cc1OC)C(Sc1ccc(SC)cc1)c1c(nc(N)c(C#N)c1N)O2 (stereo not given)	-63.7% (active)
O=C1NC(=Nc2ccc(O)cc2)S/C1=C\c1cccc(Cl)c1	109% (inactive)
O=C(O)COc1ccc(Cl)cc1C1CCCCC1	103% (inactive)

Input: I'm curious: which growth was measured for `O=C1/C(=C/c2cn(-c3ccccc3)nc2-c2ccccc2)SC(=S)N1CCc1ccccc1` tested on SK-MEL-2 melanoma?
Output: 108% (inactive)

Input: I'm curious: which growth was measured for Cc1ccc2c(C(C[N+](=O)[O-])c3ccccc3F)c(-c3ccccc3)[nH]c2c1 (stereo not given) tested on SK-MEL-2 melanoma?
Output: 15.4% (inactive)

Input: I'm curious: which growth was measured for `Nc1nc2ncc(CCNc3ccc(C(=O)O)cc3)nc2c(=O)[nH]1` tested on SK-MEL-2 melanoma?
Output: 96.3% (inactive)

Input: I'm curious: which growth was measured for `O=C(Cn1cccc(Nc2ccccc2)c1=O)Nc1ccccc1` tested on SK-MEL-2 melanoma?
Output: 121% (inactive)

Input: I'm curious: which growth was measured for `COc1ccc2nc(NC(=O)CSc3nnc4n3S(=O)(=O)c3ccccc3N4c3ccccc3)sc2c1` tested on SK-MEL-2 melanoma?
Output: 87.9% (inactive)

Input: I'm curious: which growth was measured for `COc1ccc2[nH]cc(-c3noc(C(=O)c4cn(C)c5ccc(F)cc45)n3)c2c1` tested on SK-MEL-2 melanoma?
Output: 94.7% (inactive)

Input: I'm curious: which growth was measured for `CCOC(=O)c1c(C)oc2ncnc(N3CCN(C(=S)Nc4ccccc4)CC3)c12` tested on SK-MEL-2 melanoma?
Output: 95.3% (inactive)

----------
- Test system: SK-OV-3 ovarian
- assay_name: NCI-60 one-dose screen, 48 h
- details: 10 µM unless noted
About 83,000 compounds went through this panel and 20% of them were active in at least one assay; those are over-represented in the sample as a whole. The source made the active and inactive calls. Rule for the calls: active = growth percent below 10; inactive = the rest.
Output constraint: value belongs to 1 for active, -1 for inactive

// below: answered compounds
C#Cc1cccc(NC(=O)c2ccccc2NC(=O)C=C)c1	-1
CCc1nc(N)nc(N)c1C#CC(C)c1cc(-c2ccnc(C)c2)c2oc(C)nc2c1 (stereo not given)	-1
O=C(COc1cccc(/C=C2\CSc3ccccc3C2=O)c1)Nc1nccs1	-1

# input for lookup
Input: Lab log entry: `O=S(=O)(Nc1ccc(OC(F)F)cc1)c1ccc(-c2cnc(C3CC3)o2)cc1` — outcome as called in the assay?
Output: -1

Source: PubChem BioAssay (NCI)
